biological target: human MRGPRX2 (Homo sapiens); assay: Ca2+ mobilization assay (FLIPR TETRA): inhibition of Cortistatin-14 mediated MRGPRX2 activation
Sequence (Q96LB1 whole entry): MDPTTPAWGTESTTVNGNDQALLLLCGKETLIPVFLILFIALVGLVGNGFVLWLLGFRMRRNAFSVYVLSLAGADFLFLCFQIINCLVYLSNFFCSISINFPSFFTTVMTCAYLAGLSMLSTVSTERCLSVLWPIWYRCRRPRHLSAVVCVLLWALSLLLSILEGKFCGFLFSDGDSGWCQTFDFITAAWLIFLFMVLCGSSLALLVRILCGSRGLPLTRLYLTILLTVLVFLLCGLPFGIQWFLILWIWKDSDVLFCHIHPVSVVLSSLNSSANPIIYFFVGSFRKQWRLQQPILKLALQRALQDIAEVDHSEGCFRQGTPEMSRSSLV
// reported IC50 per item

Below: 4 compounds and their reported IC50.
>>> print(df.to_string())
                                   compound                 target_system  experimental_readout  value_measured
0  C[C@@H](C(=O)Nc1ccc(Cl)cn1)N1CCC(F)(F)[C@@H](c2ccc(=O)[nH]c2)C1 [Example 81]  human MRGPRX2 (Homo sapiens)                  IC50  100 to 3160 nM
1  C[C@@H](C(=O)Nc1ccc(Oc2ccc(F)cc2CO)cn1)N1CCC(F)(F)[C@@H](c2ccc(=O)[nH]c2)C1 [Example 271]  human MRGPRX2 (Homo sapiens)                  IC50    10 to 100 nM
2  CC(C(=O)Nc1ccc(Cl)cn1)N1CCC(F)(F)C(c2c[nH]c(=O)c(CO)c2)C1 (stereo not shown) [Example 155]  human MRGPRX2 (Homo sapiens)                  IC50  100 to 3160 nM
3  C[C@@H](C(=O)Nc1ccc(Cc2ccccc2)nn1)N1CCC(F)(F)[C@@H](c2ccc(=O)[nH]c2)C1 [Example 12]  human MRGPRX2 (Homo sapiens)                  IC50    10 to 100 nM

Request: Name the reported IC50 value associated with the compound C[C@@H](C(=O)Nc1ccc(Oc2ccc(F)cc2)cn1)N1CCC(F)(F)[C@@H](c2c[nH]c(=O)c(CS(C)(=O)=O)c2)C1 [Example 214]
Result: ≤ 10 nM

Request: Name the reported IC50 value associated with the compound C[C@@H](C(=O)Nc1ccc(F)cn1)N1CCC(F)(F)[C@@H](c2c[nH]c(=O)c(N)c2)C1 [Example 142]
Result: 100 to 3160 nM

Request: Name the reported IC50 value associated with the compound C[C@@H](C(=O)Nc1ccc(F)cn1)N1CCC(F)(F)[C@@H](c2cn(CC(F)(F)F)c(=O)cn2)C1 (single isomer, unassigned) [Example 103]
Result: ≤ 10 nM
